target: WT 5-HT3 receptor (mouse 5-HT3A subunit) (Mus musculus); assay: Agonist-induced currents, voltage clamp electrophysiology in Xenopus oocytes; assay type: cell-based; conditions: WT; oocytes, holding potential −60 mV
Sequence (P23979 24-483 isoform P23979-2 limits assumed): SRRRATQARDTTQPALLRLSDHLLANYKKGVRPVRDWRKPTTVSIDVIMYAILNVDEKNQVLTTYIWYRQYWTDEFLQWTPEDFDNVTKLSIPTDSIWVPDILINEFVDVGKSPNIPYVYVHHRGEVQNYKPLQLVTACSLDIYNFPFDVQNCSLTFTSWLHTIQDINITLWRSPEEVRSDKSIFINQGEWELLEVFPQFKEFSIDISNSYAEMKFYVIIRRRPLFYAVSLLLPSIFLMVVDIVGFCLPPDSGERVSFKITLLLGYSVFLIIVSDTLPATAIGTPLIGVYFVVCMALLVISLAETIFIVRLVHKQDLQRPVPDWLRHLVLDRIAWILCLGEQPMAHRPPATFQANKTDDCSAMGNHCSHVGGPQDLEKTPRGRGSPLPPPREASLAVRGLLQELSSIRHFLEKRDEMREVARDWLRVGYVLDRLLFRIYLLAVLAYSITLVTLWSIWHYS
pEC50: −log10 of the molar value.
property-label: pEC50

* N=C(N)NC(=N)Nc1cccc(Cl)c1 [mCPBG, m-chlorophenylbiguanide] | 6.33

----------
biological target: N128A mutant 5-HT3 receptor (mouse 5-HT3A subunit) (Mus musculus, UniProt P23979, N128A); assay: Agonist-induced currents, voltage clamp electrophysiology in Xenopus oocytes; assay type: cell-based; conditions: N128A
Sequence (P23979 24-483 isoform P23979-2 N128A limits assumed): as the sequence (P23979 24-483 isoform P23979-2 limits assumed) above, with N105A counted along it
property-label: nH (Hill coefficient)

• N=C(N)NC(=N)Nc1cccc(Cl)c1 [mCPBG, m-chlorophenylbiguanide] = 1.33
• NCCc1c[nH]c2ccc(F)cc12 [5-FT, 5-fluorotryptamine] = 2.34
• NCCc1c[nH]c2ccccc12 [tryptamine] = 2.90
